Test system: COLO 205 colon
assay-remarks: NCI tumour cell line growth inhibition, 48 h
Listed below: TGI values for each entry.

Guide cases for TGI, answers given:
>>> value_observed("O=C(COc1cc(O)c2c(=O)cc(-c3ccccc3)oc2c1)Nc1ccccc1C(F)(F)F")
"> 100 µM"
>>> value_observed("Cn1c(=O)c2c(nc3n2CCCC(=O)N3CC(O)CCl)n(C)c1=O (configuration not stated)")
"> 100 µM"
>>> value_observed("c1ccc(CN2COc3c(ccc4c3OCN(Cc3ccccc3)C4)C2)cc1")
"> 42 µM"
>>> value_observed("CS(=O)(=O)CCc1cccc(C(=O)c2cnn(-c3ccc(F)cc3)c2N)c1")
"> 25 µM"
>>> value_observed("O=c1c(Br)cc2nc3ccccc3sc-2c1Br")
"> 91 µM"

Prompt line: For the compound shown here, Nc1nc2c(ncn2C2C=CC(CO)C2)c(=O)[nH]1 (configuration not stated) , give the reported TGI.
Response line: > 100 µM

Prompt line: Can you share its TGI? I mean this compound: Cc1ccc(O)c(C2=CC(c3cccc(Cl)c3)SC(N)=N2)c1 (configuration not stated)
Response line: 39.8 µM

Prompt line: Item under review: `O=C1C2=C(CC3=C(C2)CS(=O)(=O)C3)C(=O)C2=C1CC1=C(C2)CS(=O)(=O)C1` . Reported TGI?
Response line: 35.7 µM

Prompt line: // query TGI value for entry `CC(=O)NC1(c2cc3ccccc3s2)CCCCCC1`
Response line: 50 µM

Prompt line: Consider the compound CC1(C)Cc2nc3c(cc2C(=O)C1C=N/C(C#N)=C(\N)C#N)C(=O)C(C=N/C(C#N)=C(\N)C#N)C(C)(C)C3 (configuration not stated) and give its measured TGI.
Response line: 7.04 µM

Prompt line: // lookup TGI for `CC(C)=CCC/C(C)=C/CC/C(C)=C/CC/C(C)=C/CC/C(C)=C/CC/C(C)=C/CC/C(C)=C/CC/C(C)=C/CC/C(C)=C/CO`
Response line: > 100 µM

Prompt line: Would you mind telling me what TGI value was observed for `CC(C)(C)c1cc(-n2c(-c3ccc(Cl)cc3)nc3cc(C(=O)Nc4ccc(Cl)cc4)ccc32)n[nH]1` ?
Response line: > 100 µM

----------
System: TK-10 renal
assay-remarks: NCI tumour cell line growth inhibition, 48 h
This section presents compounds with their documented TGI values.

Here are 5 compounds together with their reported answers.
>>> value_observed("O=c1ccn(COC(COCc2ccccc2)COCc2ccccc2)c(=O)[nH]1")
"> 100 µM"
>>> value_observed("CC1CCCC(C(O)CC2CC(=O)NC(=O)C2)C1O (stereo unspecified)")
"> 100 µM"
>>> value_observed("Oc1ccc(C(c2ccc(O)cc2)c2ccc(O)cc2)cc1")
"63.4 µM"
>>> value_observed("CS(=O)(=O)c1ccc(N=C/C=C/Nc2ccc(S(C)(=O)=O)cc2)cc1")
"> 100 µM"
>>> value_observed("C/C(CC(=O)Nc1ccc(C)c(C)c1)=N\\NC(N)=O")
"> 100 µM"

# ---- query compound ----
Prompt line: Looking for the measured TGI of COC1CN(C)C(=Nc2cccc3ccccc23)S1 (stereo unspecified) , can you help?
Response line: > 10 µM

----------
Tested on: IGROV1 ovarian
assay-remarks: NCI tumour cell line growth inhibition, 48 h
Listed here: items and their measured TGI.

Prompt line: I'd like to know its TGI. The molecule in question is `CC(C)(C)c1cc(-n2c(-c3ccc(Cl)cc3)nc3cc(C(=O)Nc4ccc(Cl)cc4)ccc32)n[nH]1`
Response line: > 100 µM

Prompt line: So what does the record say about TGI for N#Cc1c(N2CCC(O)C2)c2ccccc2n2c1nc1ccccc12 (centres undefined) ?
Response line: > 100 µM

Prompt line: What does the record list as TGI for `CC(C)[C@H](NC(=O)[C@H](N)Cc1ccc(N(CCCl)CCCl)cc1)C(=O)O` ?
Response line: > 100 µM

Prompt line: Given CCC[CH2][Sn]1([CH2]CCC)[O]CC(CN(C)Cc2ccccc2)[O]1 (centres undefined) , state its recorded TGI.
Response line: 30.5 µM

----------
Tested on: HS 578T breast
assay-remarks: NCI tumour cell line growth inhibition, 48 h
recorded-metric: TGI

In the examples that follow, each entry is paired with its recorded TGI.
>>> value_observed("COc1cc(NCCC2CCCCN2)c2ncccc2c1 (stereo unspecified)")
"> 100 µM"
>>> value_observed("CC1CCCC(C(O)CC2CC(=O)NC(=O)C2)C1O (stereo unspecified)")
"> 100 µM"

Prompt line: # lookup: TGI of `COc1cc(C(=O)N2CCN(c3ncnc4ccccc34)CC2)c(N)cc1OCc1ccccc1`
Response line: 55.7 µM

Prompt line: Returns the measured TGI for the input compound. Input: CC1(C)Cc2nc3c(cc2C(=O)C1C=N/C(C#N)=C(\N)C#N)C(=O)C(C=N/C(C#N)=C(\N)C#N)C(C)(C)C3 (stereo unspecified)
Response line: 3.32 µM

Prompt line: Value lookup for TGI; key = `S=C(Nc1ccc(-c2nc3ccccc3[nH]2)cc1)Nc1ccc(-c2nc3ccccc3[nH]2)cc1`
Response line: > 100 µM

Prompt line: Which TGI is reported for this compound? COC(=O)C1(C#N)C(C)(C)N=C(c2ccccc2)C12CCCCC2 (stereo unspecified)
Response line: > 100 µM

Prompt line: # get_value(readout='TGI', item= `NCCOCCOCCNc1nc(-c2ccccc2)nc(N2CCN(c3ccccn3)CC2)n1` )
Response line: 41 µM

Prompt line: # input compound: N#Cc1c(N2CCC(O)C2)c2ccccc2n2c1nc1ccccc12 (stereo unspecified) ; wanted: its TGI
Response line: > 100 µM

Prompt line: Could you share which TGI value was measured for `CS(=O)(=O)c1ccc(N=C/C=C/Nc2ccc(S(C)(=O)=O)cc2)cc1` ?
Response line: > 100 µM

Prompt line: Consider the compound shown here: `COCc1cc(C(=O)Nc2cc([C@H]3CC[C@@H](OC(=O)NC(C)C)C3)[nH]n2)n(C)n1` What is its recorded TGI?
Response line: 85.3 µM

Prompt line: May I ask what TGI has been recorded for OC(c1ccc(C(F)(F)F)cc1)C(F)(F)c1nc2ccccc2o1 (stereo unspecified) ?
Response line: > 100 µM

Prompt line: Please report the recorded TGI for `COc1cc(NCCCN=C(N)NC(N)=NC(C)C)c2ncccc2c1` .
Response line: 46.1 µM

----------
Test system: NCI-H522 lung
assay-remarks: NCI tumour cell line growth inhibition, 48 h
Binary classification by TGI, with 30 µM as an inclusive lower bound for TRUE; all other cases are FALSE.

>>> category("NC(=O)/N=C1/CCC2C3CCCC2C13")
"TRUE"
>>> category("N#Cc1c(N2CCC(O)C2)c2ccccc2n2c1nc1ccccc12 (stereo not given)")
"TRUE"
>>> category("O=C1C=CC(=Nc2cc(Br)c(O)c(Br)c2)C=C1")
"FALSE"
>>> category("CS(=O)(=O)c1ccc(N=C/C=C/Nc2ccc(S(C)(=O)=O)cc2)cc1")
"TRUE"
>>> category("COc1cc(-c2cc(O)c(-c3ccc4ccccc4n3)c(=O)[nH]2)cc(OC)c1OC")
"TRUE"

Prompt line: Does the compound CCOC(=O)C(Cc1ccc(OC(=O)c2ccc(OC)cc2)cc1)NC(=O)C(F)(F)F (stereo not given) have recorded TGI that is 30 µM or more?
Response line: TRUE

Prompt line: Record COc1cccc(NC(=O)c2sc3nc(C)c(C(O)c4ccccc4)cc3c2N)c1 (stereo not given) ; criterion: TGI no lower than 30 µM. Met?
Response line: FALSE

Prompt line: Can `S=C(Nc1ccc(-c2nc3ccccc3[nH]2)cc1)Nc1ccc(-c2nc3ccccc3[nH]2)cc1` be said to have TGI at or above 30 µM?
Response line: TRUE

----------
We begin with a simple list: items and their reported TGI.
Test system: A549 NSCLC
assay-remarks: NCI tumour cell line growth inhibition, 48 h

Worked examples, 10 compounds total:
>>> value_observed("NCCCCCCCn1c2c(c3ccccc3c1=O)C(=O)c1ccccc1-2")
"18.3 µM"
>>> value_observed("N#Cc1c(-c2ccc(Cl)cc2)[nH]c(=O)n(C2OC(CO)C(O)C(O)C2O)c1=O (stereo unspecified)")
"> 100 µM"
>>> value_observed("CCOC(=O)C1=CCOc2cc(N(C)C)ccc21")
"> 100 µM"
>>> value_observed("O=Nc1ccc(NO)c2ccccc12")
"38.7 µM"
>>> value_observed("Cc1cccc2c1c(=O)c1c(O)c3c(cc1n2C)OC(C)(C)C=C3")
"> 10 µM"
>>> value_observed("O=C1C2=C(CC3=C(C2)CS(=O)(=O)C3)C(=O)C2=C1CC1=C(C2)CS(=O)(=O)C1")
"> 100 µM"
>>> value_observed("O=C(c1ccccc1)C1OC1c1ccc([N+](=O)[O-])cc1 (stereo unspecified)")
"> 100 µM"
>>> value_observed("COc1ccc2ccccc2c1C1NC(=O)c2ccccc2N1 (stereo unspecified)")
"> 51.8 µM"
>>> value_observed("CCN(CC)CCCNCc1cc(-c2ccccc2)nc2ccccc12")
"> 100 µM"
>>> value_observed("CC(=O)Nc1c(C)cc2c(nc3n2CCC3OC(C)=O)c1[N+](=O)[O-] (stereo unspecified)")
"> 100 µM"

Prompt line: I'm curious: which TGI was measured for Nc1nc2c(ncn2C2C=CC(CO)C2)c(=O)[nH]1 (stereo unspecified) tested on A549 NSCLC?
Response line: > 100 µM

Source: PubChem BioAssay (NCI)
